Sourced from the Human Domainome abundance scans (Beltran et al. 2025)

B1: Ankyrin-3, residues 4094 to 4171; numbered along this chain, Q12955 (parent)
chain: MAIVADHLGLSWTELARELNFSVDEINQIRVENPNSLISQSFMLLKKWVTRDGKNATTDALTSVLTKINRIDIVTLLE

Variants of: B1
procedure-text: abundance fitness (aPCA) (normalised: wild type 0, dead -1); higher = more abundant; growth selection in yeast, the domain comes from the species named
test-conditions: Homo sapiens
experimental-readout: abundance fitness
// return a plain number; no unit text

Reported abundance fitness ( `N55R` ) = -0.073

Reported abundance fitness ( `K54E` ) = -0.132

Reported abundance fitness ( `I29A` ) = -0.768

Reported abundance fitness ( `V64L` ) = 0.111

Reported abundance fitness ( `L77I` ) = -0.293

Reported abundance fitness ( `K54N` ) = -0.316

Reported abundance fitness ( `D52C` ) = -0.549

Reported abundance fitness ( `S36C` ) = -0.184

Reported abundance fitness ( `S11Q` ) = -0.053

Reported abundance fitness ( `R51Y` ) = -0.773

Reported abundance fitness ( `L15T` ) = -0.891

Reported abundance fitness ( `H7Q` ) = -0.043

Reported abundance fitness ( `S63N` ) = -0.106

Reported abundance fitness ( `T58N` ) = -0.168

Reported abundance fitness ( `Q40P` ) = -0.646

Reported abundance fitness ( `D72L` ) = -0.718

Reported abundance fitness ( `F42L` ) = -0.063

Reported abundance fitness ( `K46C` ) = -0.432

Reported abundance fitness ( `A2H` ) = -0.033

Reported abundance fitness ( `I68T` ) = -0.987

Reported abundance fitness ( `L77H` ) = -0.742

Reported abundance fitness ( `H7W` ) = -0.802

Reported abundance fitness ( `R17H` ) = -0.182

Reported abundance fitness ( `A2N` ) = 0.08

Reported abundance fitness ( `E18I` ) = -0.721

Reported abundance fitness ( `W48G` ) = -0.811

Reported abundance fitness ( `T50D` ) = 0.089

Reported abundance fitness ( `E18W` ) = -0.825
